test: Particle characteristics of the prepared formulation by particle size analyzer (Dynamic Light Scattering, DLS); type: physicochemical; conditions: mRNA formulation; lipid compound:DMG-PEG:DSPC:Cholesterol=50:1.5:10:38.5; N/P ratio 10; buffer exchanged to PBS
metric: PDI (PI)

Worked examples follow.
CCCCC/C=C\C/C=C\CCCCCCCCOC(=O)CCCCCNC(=O)CCN(C)CCCN(C)CCC(=O)NCCCCCC(=O)OCCCCCCCC/C=C\C/C=C\CCCCC ... 0.350
CCCCCCC(CCCCCC)COC(=O)CCCCCNC(=O)CCN(C)CCCN(C)CCC(=O)NCCCCCC(=O)OCC(CCCCCC)CCCCCC ... 0.156
CCCCOC(=O)CCCCCNC(=O)CCN(C)CCCN(C)CCC(=O)NCCCCCC(=O)OCCCC ... 0.190
CCCCCCCCCCC(CCCCCCCC)COC(=O)CCCCCNC(=O)CCN(C)CCCN(C)CCC(=O)NCCCCCC(=O)OCC(CCCCCCCC)CCCCCCCCCC (centres unmarked) ... 0.215
CCCCCCC(CCCCCC)COC(=O)CCCCCCCNC(=O)CCN(CCN)CCC(=O)NCCCCCCCC(=O)OCC(CCCCCC)CCCCCC ... 0.186

1. CCCCCCCCCCC(CCCCCCCC)COC(=O)CCCCCNC(=O)CCN(CCN)CCC(=O)NCCCCCC(=O)OCC(CCCCCCCC)CCCCCCCCCC (centres unmarked)
2. CCCCCCCCC(OC(=O)CCCCCNC(=O)CCN(C)CCCN(C)CCC(=O)NCCCCCC(=O)OC(CCCCCCCC)C1CC1)C1CC1 (centres unmarked)
Input: Response body: label of entry with the larger PDI (PI); valid values 1 , 2 . Indicate your choice by writing its label.
Output: 2
(2: 0.3042, 1: 0.166)
